Origin of the recorded values: PubChem BioAssay (NCI)

Recorded TGI values for a group of compounds are listed next.
# Test system: SN12C renal
# assay.text: NCI tumour cell line growth inhibition, 48 h

| compound | target.entity | TGI |
| --- | --- | --- |
| Cn1c2cn[nH]c(=O)c2c2ccc3ccccc3c21 | SN12C renal | > 100 µM |
| O=C1c2cc(F)ccc2-c2c1c1ccc([N+](=O)[O-])cc1c(=O)n2CCCBr | SN12C renal | > 100 µM |
| O=S(=O)(CCC[C@H]1[C@@H](CCOCc2ccccc2)C2CCCN1O2)c1ccccc1 (stereo not given in full) | SN12C renal | > 100 µM |
| COc1ccc(-c2[nH]nc(N)c2-c2cc(OC)c(OC)c(OC)c2)cc1 | SN12C renal | > 57.4 µM |

Kindly consider the entry below.
Ask: Form field - read-out: TGI; system: SN12C renal; submitted item: Cn1c(=O)ccc2c(=O)c3ccccc3oc21
Reply: > 100 µM

* * *

The entries below come with measured TGI values attached.
# System: OVCAR-4 ovarian
# assay.text: NCI tumour cell line growth inhibition, 48 h

Examples with their reported TGI follow.
| molecule | TGI |
| --- | --- |
| O=C(Nc1cccc(C(=O)NCCCO)c1)/C(=C/c1ccccc1)NC(=O)c1ccccc1 | > 100 µM |
| Cc1cc2c(cc1Cl)SC(c1ccccc1O)NS2(=O)=O (stereo not given) | > 100 µM |
| COc1cccc(C2SCc3nc4ccccc4n32)c1 (stereo not given) | > 100 µM |
| CC(=O)OCCCC#CC#Cc1cccc(=O)o1 | 56.1 µM |
| CC1(C)CCCCCCCCCC2CC2CCC(C)(C)C1=O (stereo not given) | > 100 µM |

Let us move to another entry and its TGI.
Ask: Which value of TGI has been reported for CC1=CC(=O)N(n2c(-c3ccccc3)n[nH]c2=O)C1=O in the records?
Reply: > 100 µM

* * *

# System: OVCAR-3 ovarian
# assay.text: NCI tumour cell line growth inhibition, 48 h
measure.name: TGI (µM)
Report the value in µM with no unit label.

Ask: Lab note: need TGI for C/C=C(\C)C(=O)O[C@H]1C=CC(=O)O[C@H]1COC(=O)[C@H](C)O on OVCAR-3 ovarian, anyone have it?
Reply: 14

Ask: What do you get for COc1ccc(-c2nc3c(C(=O)NCCN(C)C)cccc3c3ccccc23)cc1 ?
Reply: 16.6

Ask: Field entry: O=C(CC1(O)C(=O)Nc2c(Cl)cc(Cl)cc21)c1ccc(F)cc1 (stereo not given)
Reply: 68.6

Ask: Next: C=C1CC2(CCS(=O)(=O)c3ccccc32)OC1=O (stereo not given)
Reply: 21

* * *

# Tested on: UACC-257 melanoma
# assay.text: NCI tumour cell line growth inhibition, 48 h
measure.name: TGI (µM)
The figure you give is taken to be in µM; do not add the unit.

Here are 3 molecules together with their reported answers.
| molecule | TGI [µM] |
| --- | --- |
| CC(C)(C)[Si](C)(C)OCC1OC(n2ccc(=O)[nH]c2=O)C(O[Si](C)(C)C(C)(C)C)[C@]12O[C@@H]2CO (stereo not given in full) | 39.7 |
| COc1ccc2c(c1)CCCc1c-2nc2ccccc2c1N | 9.56 |
| CC[PH+](CC)CC.CC[PH+](CC)CC.[Au] | 24.4 |

Now consider the entry below.
Ask: What is its TGI for UACC-257 melanoma? Entry: COc1cc(CNc2c3ccccc3nc3ccccc23)cc(OC)c1OC
Reply: 11.2
